- TARGET_ENTITY: T1, human PD-L1 antigen (ACROBiosystems) (human, UniProt Q9NZQ7 19-238)
- T1 construct: Bought antigen coated on ELISA plates
- METHOD_SUMMARY: BLI (Gator), antibody captured on PA probe, human PD-L1 in solution
For each record, write down the corresponding kon.
Answers are plain numbers, in M⁻¹ s⁻¹.

Before answering, review these 3 worked examples.
anti-PD-L1 monoclonal antibody 1102 (antibody, human IgG1, V domains shown) VH: EVQLVESGGGLVQPGGSLRLSCAASGFTFDYYTQCWFRQAPGKEREWVSCISSSEGSTYYADSVKGRFTISRDNAKNTVYLQMNSLRAEDTAVYYCAARKGGPLTIENFFDYWGQGTQVTVSS :: 1.02e+06
anti-PD-L1 monoclonal antibody 1541 (antibody, human IgG1, V domains shown) VH: EVQLVESGGGLVQPGGSLRLSCAASGFTFDYYTQCWFRQAPGKEREWVSCISSSEGSTYYADSVKGRFTISRDNSKNTVYLQMNSLKTEDTAVYYCAARKGGPLTIENFFDYWGQGTQVTVSS :: 670000
anti-PD-L1 monoclonal antibody 1031 (antibody, human IgG1, V domains shown) VH: EVQLVESGGGLVQPGGSLRLSCAASGFTFEYYTKCWFRQAPGKEREWVSCISTSEGSTYYADSVKGRFTISRDNAKNTVYLQMNSLRAEDTAVYYCAARKGGPLTIENFFDYWGQGTQVTVSS :: 1.1e+06

Now turn to the next binder.
**Q:** Which kon value is on record for anti-PD-L1 monoclonal antibody 1029 (antibody, human IgG1, V domains shown) VH: EVQLVESGGGLVQPGGSLRLSCAASGFTLDYYSKCWFRQAPGKEREWVSCIGSSDGSTYYADSVKGRFTISRDNAKNTVYLQMNSLRAEDTAVYYCAARNGGPLTIENFFDYWGQGTQVTVSS ?
**A:** 967000
